# Test system: OVCAR-5 ovarian
# Method description: NCI tumour cell line growth inhibition, 48 h
Measured TGI accompanies every entry in the list below.

# Molecule, System name, TGI
records = [
    ("NC(CP(=O)(O)O)C(=O)O (stereo unspecified)", "OVCAR-5 ovarian", "> 100 µM"),
    ("C=C[C@]1(C)CC(=O)C(C(C)C=O)[C@]12C(=O)Oc1cccc(C)c1C2=O (stereo partly specified)", "OVCAR-5 ovarian", "30.6 µM"),
    ("COc1ccc(OC)c(N=Cc2cc(OC)c(OC)c(OC)c2)c1", "OVCAR-5 ovarian", "> 100 µM"),
    ("CCCC(=O)N(C)N=Nc1ccc(C(=O)OCC)cc1", "OVCAR-5 ovarian", "> 100 µM"),
    ("O=C(NCCCl)NCCN1c2nc3ccccc3cc2Sc2cc3ccccc3nc21", "OVCAR-5 ovarian", "> 44.5 µM"),
]

Q: Can you share its TGI? I mean this molecule: CCC(CC)c1cc(N[C@H]2CC[C@H](N)C2)n2nccc2n1
Ans: > 100 µM

Q: Entry under review: N#CC(NNC(=O)c1c(Cl)c(Cl)c(Cl)c(Cl)c1-c1nc2ccc(C(=O)c3ccccc3)cc2[nH]1)c1ccccc1 (stereo unspecified) . Reported TGI?
Ans: > 100 µM
